# TGI per record follows
Tested on: SN12C renal
assay_remarks: NCI tumour cell line growth inhibition, 48 h

Illustrative cases are given below, each with its answer.
- CC(Cc1ccc(O)c(O)c1)C(C)Cc1ccc(O)c(O)c1 (stereo not drawn): > 51.6 µM
- C[C@@H]1C(O)CC[C@H](C)C12CC=CC2=O (stereo partly drawn): > 100 µM

Now, please, on to the next molecule.
Consider N#Cc1c(-c2ccc(Cl)cc2)c(C#N)c(=O)n(NS(=O)(=O)c2ccccc2)c1-c1ccccc1 . Its measured TGI is > 25 µM
